- study.system: Human Topo I (topoisomerase I) (Homo sapiens, UniProt P11387)
- Construct: gene TOP1
- Sequence (P11387 2-765): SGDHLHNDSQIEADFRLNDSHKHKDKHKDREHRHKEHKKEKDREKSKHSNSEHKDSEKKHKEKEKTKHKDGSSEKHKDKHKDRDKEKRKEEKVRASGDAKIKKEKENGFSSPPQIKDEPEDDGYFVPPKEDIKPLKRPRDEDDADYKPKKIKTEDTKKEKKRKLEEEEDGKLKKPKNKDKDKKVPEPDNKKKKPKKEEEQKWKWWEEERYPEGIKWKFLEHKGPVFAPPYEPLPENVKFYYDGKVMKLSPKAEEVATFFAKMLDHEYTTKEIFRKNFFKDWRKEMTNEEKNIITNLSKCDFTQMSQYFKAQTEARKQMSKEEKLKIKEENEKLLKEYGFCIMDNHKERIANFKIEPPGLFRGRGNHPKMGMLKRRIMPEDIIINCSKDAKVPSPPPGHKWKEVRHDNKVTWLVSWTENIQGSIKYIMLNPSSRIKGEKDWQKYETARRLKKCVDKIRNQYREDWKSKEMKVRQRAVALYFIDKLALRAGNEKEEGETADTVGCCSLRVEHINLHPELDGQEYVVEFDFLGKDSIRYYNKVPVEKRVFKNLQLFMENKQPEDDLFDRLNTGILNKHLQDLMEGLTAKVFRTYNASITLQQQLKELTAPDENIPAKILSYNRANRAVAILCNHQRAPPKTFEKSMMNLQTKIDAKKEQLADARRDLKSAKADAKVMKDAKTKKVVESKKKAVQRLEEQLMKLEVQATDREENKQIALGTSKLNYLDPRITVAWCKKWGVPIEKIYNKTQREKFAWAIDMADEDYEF
- assay.explanation: Topo I DNA relaxation fluorescence plate assay (Inspiralis)
- Type: biochemical
- condition.parameters: read-out: IC50
test.readout: IC50

INSERT INTO assay_data (smiles_data, test_readout, obs_value) VALUES
  ('CCc1c2c(nc3ccc(O)cc13)-c1cc3c(c(=O)n1C2)COC(=O)[C@]3(O)CC', 'IC50', '40.3 µM');
